Target: hERG potassium channel (Homo sapiens (Human))
Sequence (Q12809 whole entry): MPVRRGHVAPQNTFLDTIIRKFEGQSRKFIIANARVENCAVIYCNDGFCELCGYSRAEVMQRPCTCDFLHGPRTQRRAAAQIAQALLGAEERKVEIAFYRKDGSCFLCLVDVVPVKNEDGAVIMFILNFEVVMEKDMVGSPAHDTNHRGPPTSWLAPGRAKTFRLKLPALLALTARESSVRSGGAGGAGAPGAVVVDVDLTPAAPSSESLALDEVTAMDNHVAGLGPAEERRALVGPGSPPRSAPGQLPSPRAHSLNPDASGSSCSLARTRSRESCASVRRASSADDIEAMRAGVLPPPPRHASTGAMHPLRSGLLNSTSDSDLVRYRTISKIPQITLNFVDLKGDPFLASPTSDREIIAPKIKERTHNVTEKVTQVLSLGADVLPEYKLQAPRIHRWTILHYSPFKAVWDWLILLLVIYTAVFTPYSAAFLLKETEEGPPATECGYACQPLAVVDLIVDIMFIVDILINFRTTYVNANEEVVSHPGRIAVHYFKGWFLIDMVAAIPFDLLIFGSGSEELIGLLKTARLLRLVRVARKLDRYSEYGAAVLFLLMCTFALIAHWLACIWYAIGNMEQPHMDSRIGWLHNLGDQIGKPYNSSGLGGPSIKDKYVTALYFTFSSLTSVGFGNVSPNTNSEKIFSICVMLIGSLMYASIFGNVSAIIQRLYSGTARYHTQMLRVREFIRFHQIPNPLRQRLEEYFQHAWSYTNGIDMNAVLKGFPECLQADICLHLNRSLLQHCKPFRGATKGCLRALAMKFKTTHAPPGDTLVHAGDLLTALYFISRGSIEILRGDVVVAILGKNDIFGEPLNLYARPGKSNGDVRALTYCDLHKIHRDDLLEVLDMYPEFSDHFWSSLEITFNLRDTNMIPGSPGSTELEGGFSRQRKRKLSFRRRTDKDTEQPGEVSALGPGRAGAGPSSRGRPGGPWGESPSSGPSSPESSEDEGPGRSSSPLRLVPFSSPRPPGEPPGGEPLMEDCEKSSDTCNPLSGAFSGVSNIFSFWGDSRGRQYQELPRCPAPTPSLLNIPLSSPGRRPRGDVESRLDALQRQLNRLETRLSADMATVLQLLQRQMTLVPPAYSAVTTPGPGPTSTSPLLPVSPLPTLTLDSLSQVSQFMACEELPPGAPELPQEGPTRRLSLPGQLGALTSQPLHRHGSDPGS
Assay: hERG potassium channel toxicity assay (hERG patch clamp)
Type: cell-based
Conditions: human; hERG, at maximum concentration 40 μM; read-out: Inhibition rate (%)
Metric: inhibition at 40 µM (%)
# output: bare number, implied unit %

I would be grateful if you could share the reported inhibition at 40 µM for FC1(F)CC1Cc1nnc2cc(-c3cccc4c3OCC4)ccn12 (stereo not shown) [Compound 32] .
51

I would be grateful if you could share the reported inhibition at 40 µM for Cc1cc(F)ccc1-c1ccn2c(CC3CC3(F)F)nnc2c1 (stereo not shown) [Compound 26] .
49.4

I would be grateful if you could share the reported inhibition at 40 µM for Cc1cc(-c2ccn3c(CC4CC4(F)F)nnc3c2)ccc1F (stereo not shown) [Compound 27] .
49.9

I would be grateful if you could share the reported inhibition at 40 µM for Cc1cccc(-c2ccn3c(CC4CC4(F)F)nnc3c2Cl)c1 (stereo not shown) [Compound 36] .
48.9
